Molecular target: T1, Anti-CD28 Fab (SEQ ID NOs: 696, 697)
T1 construct: Biotinylated and captured on neutravidin coated plates in the phage ELISA
T1 sequence (VH, as listed by the source, chain 1 of 2): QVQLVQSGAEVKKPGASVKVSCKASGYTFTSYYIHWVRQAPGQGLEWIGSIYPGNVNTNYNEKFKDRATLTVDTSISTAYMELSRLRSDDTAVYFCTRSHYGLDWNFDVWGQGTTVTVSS
T1 sequence (VL, as listed by the source, chain 2 of 2): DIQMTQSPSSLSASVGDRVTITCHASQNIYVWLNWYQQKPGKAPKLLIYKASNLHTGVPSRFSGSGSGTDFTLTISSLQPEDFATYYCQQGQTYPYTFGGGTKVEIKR
Experiment: phage binding ELISA on captured anti-CD28 Fab; competitor: CD28 antigen pre-incubated in the well;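 note: clonal phage supernatants added briefly to wells preblocked with or without CD28, bound phage detected through an HRP-linked anti-M13 antibody, wells with blocking buffer alone as comparison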
recorded.endpoint: Anti-CD28 Fab signal in the presence of CD28
// return a plain number; no unit text

Take a look at these entries with their results.
TCSAVFSYTWSNCF (tested as crude phage supernatant) [Phage-1536] = 0.06
TCSAGATYVWPDCF (tested as crude phage supernatant) [Phage-1542] = 0.09
TCAAGAAWEWPICF (tested as crude phage supernatant) [Phage-1538] = 0.06

Ask | Requested read-out: Anti-CD28 Fab signal in the presence of CD28. Entry: TCAAGAMWNWPQCY (tested as crude phage supernatant) [Phage-1539]
Reply | 0.07

Ask | Requested read-out: Anti-CD28 Fab signal in the presence of CD28. Entry: LCAEGFDYSWPMCL (tested as crude phage supernatant) [Phage-1533]
Reply | 0.08

Ask | Requested read-out: Anti-CD28 Fab signal in the presence of CD28. Entry: TCEAVFIYSWPFCL (tested as crude phage supernatant) [Phage-1543]
Reply | 0.08

Ask | Requested read-out: Anti-CD28 Fab signal in the presence of CD28. Entry: QCAAGAMWTWPACF (tested as crude phage supernatant) [Phage-1537]
Reply | 0.06
